- target.entity: Human Tyk2 kinase domain (Homo sapiens, UniProt P29597)
- Sequence (P29597 886-1187): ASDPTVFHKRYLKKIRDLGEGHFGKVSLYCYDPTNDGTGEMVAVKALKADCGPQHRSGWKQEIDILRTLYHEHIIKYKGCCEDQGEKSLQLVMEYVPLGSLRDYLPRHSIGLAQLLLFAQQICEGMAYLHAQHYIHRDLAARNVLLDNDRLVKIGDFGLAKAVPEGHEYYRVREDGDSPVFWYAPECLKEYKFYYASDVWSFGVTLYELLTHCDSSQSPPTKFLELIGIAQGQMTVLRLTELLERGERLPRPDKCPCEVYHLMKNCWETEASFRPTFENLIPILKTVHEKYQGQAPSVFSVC
pIC50: −log10 of the molar value.
measurement.label: pIC50

Worked examples, 5 compounds total:
compound="Cn1cc(-c2cc3nccn3c(-c3cnn(C4(CC#N)CN(S(=O)(=O)C5CC5)C4)c3)n2)cn1 [Example 95]" meas_value="> 8.00"
compound="N#CCC1(n2cc(-c3nc(-c4cnn(C5COC5)c4)cc4nccn34)cn2)CN(CC(F)(F)C(F)(F)F)C1 [Example 157]" meas_value="7.00 to 8.00"
compound="Cn1cc(-c2cc3nccn3c(-c3cnn(CCC#N)c3)n2)cn1 [Example 19]" meas_value="7.00 to 8.00"
compound="Cn1cc(-c2cc3nccn3c(-c3cnn(C4(CC#N)CC5(CCC5)C4)c3)n2)cn1 [Example 160]" meas_value="> 8.00"
compound="Cn1cc(-c2cc3ncc(F)n3c(-c3cnn(C4(CC#N)CN(S(=O)(=O)C(F)(F)F)C4)c3)n2)cn1 [Example 154]" meas_value="> 8.00"

Ask | Record Cn1cc(-c2cc3ncc(Cl)n3c(-c3cnn(C4(CC#N)CN(S(=O)(=O)C(F)(F)F)C4)c3)n2)cn1 [Example 155] : what is its pIC50 with Human Tyk2 kinase domain (Homo sapiens, UniProt P29597)?
Reply | > 8.00
